System: K562
procedure_summary: Cytotoxicity against human K562 cells assessed as cell viability after 48 hrs by celltiter-blue assay
Format: functional, cell-based
experimental_parameters: K562, 48 h
experimental_endpoint: IC50 (µM)
Respond numerically; units are µM and should not be typed.

// solved cases for IC50 follow
INSERT INTO measurements (compound, system_tested, value_observed) VALUES
  ('Nc1ccn([C@@H]2O[C@H](CO)[C@@H](O)[C@@H]2O)c(=O)n1', 'K562', 14),
  ('COc1cc([C@@H]2c3cc4c(cc3[C@@H](O[C@@H]3O[C@@H]5CO[C@@H](C)O[C@H]5[C@H](O)[C@H]3O)[C@H]3COC(=O)[C@H]23)OCO4)cc(OC)c1O [ETOPOSIDE]', 'K562', 2.3);

Okay, now this compound:
Check the records and state IC50 for `CC[C@]1(O)C[C@H]2CN(CCc3c([nH]c4ccccc34)[C@@](C(=O)OC)(c3cc4c(cc3OC)N(C=O)[C@H]3[C@@](O)(C(=O)OC)[C@H](OC(C)=O)[C@]5(CC)C=CCN6CC[C@]43[C@@H]65)C2)C1`
0.0001

* * *

The entries below are paired with their reported IC50.
System: K562
procedure_summary: Cytotoxicity against human K562 cells assessed as cell viability after 48 hrs by celltiter-blue assay
Format: functional, cell-based
experimental_parameters: K562, 48 h
Respond numerically; units are µM and should not be typed.

// solved cases for IC50 follow
INSERT INTO results (molecule, value_observed) VALUES
  ('CN(C)CC[C@H](CSc1ccccc1)Nc1ccc(S(=O)(=O)NC(=O)c2ccc(N3CCN(Cc4ccccc4-c4ccc(Cl)cc4)CC3)cc2)cc1[N+](=O)[O-]', 34.7),
  ('C#CCOC(=O)CC1C(C(=O)OCC#C)=C(N)Oc2ccc(-c3ccc(N)cc3)cc21 (racemic)', 2.36);

Okay, now this molecule:
Check the records and state IC50 for `CC(C)(C)c1ccc(NC(=S)N/N=C2\C(=O)Nc3ccccc32)cc1`
26.9

* * *

System: HL-60
procedure_summary: Cytotoxicity against human HL60 cells assessed as cell viability after 48 hrs by celltiter-blue assay
Type: functional, cell-based
experimental_parameters: HL-60, 48 h
The entries below are paired with their reported IC50.

// solved cases for IC50 follow
INSERT INTO measurements (molecule, value_observed) VALUES
  ('COc1cccc2c1C(=O)c1c(O)c3c(c(O)c1C2=O)C[C@@](O)(C(=O)CO)C[C@@H]3O[C@H]1C[C@H](N)[C@H](O)[C@H](C)O1', '0.04 µM'),
  ('C#CCOC(=O)CC1C(C(=O)OCC#C)=C(N)Oc2ccc(-c3cccc(NCC)c3)cc21 (racemic)', '1.86 µM'),
  ('CCOC(=O)CC1C(C(=O)OCC)=C(N)Oc2ccc(-c3cccs3)cc21 (racemic)', '> 80 µM'),
  ('CCOC(=O)CC1C(C#N)=C(N)Oc2ccc(-c3cc(OC)cc(OC)c3)cc21 (racemic)', '19.6 µM'),
  ('CCOC(=O)CC1C(C(=O)OC)=C(N)Oc2ccc(-c3cc(OC)cc(OC)c3)cc21 (racemic)', '10.8 µM'),
  ('CCOC(=O)CC1C(C(=O)OCC)=C(N)Oc2ccc(-c3ccnc(OC)c3)cc21 (racemic)', '10.2 µM');

Check the records and state IC50 for CCOC(=O)CC1C(c2nc(-c3ccc(OC)cc3)no2)=C(N)Oc2ccc(-c3cc(OC)cc(OC)c3)cc21 (racemic)
> 80 µM

Check the records and state IC50 for CCOC(=O)CC1C(C(=O)OCC)=C(N)Oc2ccc(-c3ccccc3F)cc21 (racemic)
73 µM

* * *

Tested on: HL-60
procedure_summary: Cytotoxicity against human HL60 cells assessed as cell viability after 48 hrs by celltiter-blue assay
Type: functional, cell-based
experimental_parameters: HL-60, 48 h
pIC50: −log10 of the molar value.
Grouping rule (pIC50): label 0: < 5; label 1: ≥ 5 and < 6; label 2: ≥ 6

Before answering, review these 5 worked examples.
INSERT INTO measurements (molecule, class) VALUES
  ('CCOC(=O)CC1C(C(=O)OCC)=C(N)Oc2ccc(-c3cccc(F)c3)cc21 (racemic)', 'label 0'),
  ('C#CCOC(=O)CC1C(C(=O)OCC#C)=C(N)Oc2ccc(-c3ccc(N)cc3)cc21 (racemic)', 'label 2'),
  ('C#CCOC(=O)CC1C(C(=O)OCC#C)=C(N)Oc2ccc(-c3cccc(NC(=O)CCl)c3)cc21 (racemic)', 'label 1'),
  ('Nc1ccn([C@@H]2O[C@H](CO)[C@@H](O)[C@@H]2O)c(=O)n1 [CYTARABINE]', 'label 2'),
  ('CCOC(=O)CC1C(C(=O)OCC)=C(N)Oc2ccc(-c3cccc(C(N)=O)c3)cc21 (racemic)', 'label 1');

Each molecule maps to one class by pIC50. Which class for C/C=C(/C)C(=O)O[C@H]1C(C)=C2[C@H]([C@@H]1OC(=O)CCCCCCC)[C@@](C)(OC(C)=O)C[C@H](OC(=O)CCC)[C@@]1(O)[C@H]2OC(=O)[C@@]1(C)O [THAPSIGARGIN] ?
label 2

Each molecule maps to one class by pIC50. Which class for CCOC(=O)CC1C(C(=O)OCC)=C(N)Oc2ccc(-c3cncnc3)cc21 (racemic) ?
label 0

Each molecule maps to one class by pIC50. Which class for C#CCOC(=O)CC1C(C(=O)OCC)=C(N)Oc2ccc(-c3cccc(NCC)c3)cc21 (racemic) ?
label 0

Each molecule maps to one class by pIC50. Which class for O=C1c2c(O)ccc(O)c2C(=O)c2c(NCCNCCO)ccc(NCCNCCO)c21 [MITOXANTRONE] ?
label 2

Each molecule maps to one class by pIC50. Which class for C#CCOC(=O)CC1C(C(=O)OCC#C)=C(N)Oc2ccc(-c3cccc(-n4cnnn4)c3)cc21 (racemic) ?
label 1

Each molecule maps to one class by pIC50. Which class for C#CCOC(=O)CC1C(C(=O)OCC#C)=C(N)Oc2ccc(-c3ccc(NC)cc3)cc21 (racemic) ?
label 1

Each molecule maps to one class by pIC50. Which class for `CC(C)(C)c1ccc(NC(=S)N/N=C2\C(=O)Nc3ccccc32)cc1` ?
label 1

Each molecule maps to one class by pIC50. Which class for CCOC(=O)CC1C(C(=O)OCC)=C(N)Oc2ccc(-c3ccc(N)cc3)cc21 (racemic) ?
label 0

* * *

The entries below are paired with their reported IC50.
Tested on: K562
procedure_summary: Cytotoxicity against human K562 cells assessed as cell viability after 48 hrs by celltiter-blue assay
Format: functional, cell-based
experimental_parameters: K562, 48 h
Respond numerically; units are nM and should not be typed.

INSERT INTO measurements (chemical_structure, units_label, value_observed) VALUES
  ('O=C1c2c(O)ccc(O)c2C(=O)c2c(NCCNCCO)ccc(NCCNCCO)c21', 'nM', 510),
  ('C/C=C(/C)C(=O)O[C@H]1C(C)=C2[C@H]([C@@H]1OC(=O)CCCCCCC)[C@@](C)(OC(C)=O)C[C@H](OC(=O)CCC)[C@@]1(O)[C@H]2OC(=O)[C@@]1(C)O', 'nM', 170);

Okay, now this compound:
Check the records and state IC50 for `COc1cccc2c1C(=O)c1c(O)c3c(c(O)c1C2=O)C[C@@](O)(C(=O)CO)C[C@@H]3O[C@H]1C[C@H](N)[C@H](O)[C@H](C)O1`
440

* * *

Tested on: HL-60
procedure_summary: Cytotoxicity against human HL60 cells assessed as cell viability after 48 hrs by celltiter-blue assay
Format: functional, cell-based
experimental_parameters: HL-60, 48 h
experimental_endpoint: pIC50
# pIC50 = -log10(concentration in molar units)

INSERT INTO results (compound, experimental_endpoint, value_observed) VALUES
  ('C#CCOC(=O)CC1C(C(=O)OCC#C)=C(N)Oc2ccc(-c3cccc(NC)c3)cc21 (racemic)', 'pIC50', 6.06),
  ('CCOC(=O)CC1C(C(=O)OCC)=C(N)Oc2ccc(-c3cc(OC)cc(OC)c3)cc21 (racemic)', 'pIC50', 4.97),
  ('CCOC(=O)CC1C(C(=O)OCC)=C(N)Oc2ccc(-c3ccncc3)cc21 (racemic)', 'pIC50', 4.99);

Okay, now this compound:
Check the records and state pIC50 for C#CCOC(=O)CC1C(C(=O)OCC#C)=C(N)Oc2ccc(-c3ccc(NCC)cc3)cc21 (racemic)
5.14
